Plant response rating, Velvetleaf by entry:
Test system: velvetleaf (Abutilon theophrasti)
Assay: Test A pre-/postemergence greenhouse herbicide test
Type: in vivo
Conditions: Postemergence, 500 g ai/ha; 0 to 100 scale (0 no effect, 100 complete control), approx. 10 d

# CHEM_SMILES, Plant response rating, Velvetleaf
measured = [
    ("CCCc1cc(=O)n(-c2ccc(F)cc2)nc1Cc1ccnc(C(F)(F)F)c1", 80),
    ("CCCOc1cc(=O)n(-c2ccc(C(F)(F)F)cc2)nc1Cc1ccnc(C(F)(F)F)c1", 50),
    ("Cc1cc(=O)n(-c2ccc(F)cc2)nc1Cc1cccc(C(F)(F)F)c1", 80),
    ("CCOc1cc(=O)n(-c2ccc(C(F)(F)F)cc2)nc1Cc1ccnc(C(F)(F)F)c1", 80),
    ("CN(C)c1cc(=O)n(-c2ccc(C(F)(F)F)cc2)nc1Cc1ccnc(C(F)(F)F)c1", 80),
]
